# targetOrTestSystem: Apoptosis regulator Bcl-2 (Homo sapiens, UniProt P10415)
# Sequence (P10415 whole entry): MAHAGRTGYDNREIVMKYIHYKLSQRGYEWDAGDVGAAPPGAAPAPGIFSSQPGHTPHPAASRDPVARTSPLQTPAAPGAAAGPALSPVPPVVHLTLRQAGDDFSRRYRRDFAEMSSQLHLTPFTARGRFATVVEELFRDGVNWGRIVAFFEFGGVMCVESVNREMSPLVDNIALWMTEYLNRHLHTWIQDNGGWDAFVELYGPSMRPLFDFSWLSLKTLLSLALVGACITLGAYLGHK
# assaySummary: Binding affinity to Bcl-2 (unknown origin) assessed as inhibition constant
quantity: Ki (nM)
Write the number in nM without appending the unit.

## Task Send back Apoptosis regulator Bcl-2 (Homo sapiens, UniProt P10415) Ki of CC1=C(C2=C(C)C(=O)C3C(C(C)C)=C(O)C(O)=CC3C2=O)C(=O)c2cc(O)c(O)c(C(C)C)c2C1=O (stereo unspecified) only.
## Result 35

====

# assaySummary: Half-life in human
# Type: ADME
quantity: half-life (min)
Your answer is read as min, so omit the unit and give the number.

## Task Give recorded half-life. "CC1(C)CCC(CN2CCN(c3ccc(C(=O)NS(=O)(=O)c4ccc(NCC5CCOCC5)c([N+](=O)[O-])c4)c(Oc4cnc5[nH]ccc5c4)c3)CC2)=C(c2ccc(Cl)cc2)C1"
## Result 1560
